B1: library; numbered along this chain (parent)
chain: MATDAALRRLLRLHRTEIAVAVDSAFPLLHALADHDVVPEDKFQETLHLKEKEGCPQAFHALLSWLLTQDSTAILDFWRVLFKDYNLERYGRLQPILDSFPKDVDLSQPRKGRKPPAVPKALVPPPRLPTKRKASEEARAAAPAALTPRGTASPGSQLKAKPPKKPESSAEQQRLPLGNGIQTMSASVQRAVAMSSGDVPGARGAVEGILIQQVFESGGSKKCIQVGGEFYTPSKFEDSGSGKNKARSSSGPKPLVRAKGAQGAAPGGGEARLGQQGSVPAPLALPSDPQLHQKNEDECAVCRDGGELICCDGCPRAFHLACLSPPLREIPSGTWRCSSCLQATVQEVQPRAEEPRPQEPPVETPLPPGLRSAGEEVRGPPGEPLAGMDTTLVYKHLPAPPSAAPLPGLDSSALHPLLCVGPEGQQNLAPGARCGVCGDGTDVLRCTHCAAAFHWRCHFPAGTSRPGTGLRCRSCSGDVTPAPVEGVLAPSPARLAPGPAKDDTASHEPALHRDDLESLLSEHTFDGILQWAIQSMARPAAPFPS

Variants of: B1
procedure text: AIRE transcriptional activation functional score (insulin promoter-GFP; nonsense median 0, synonymous median 1) (normalised score); higher = higher AIRE activity (more reporter activation)
condition context: with insulin promoter-GFP reporter in HEK293
Recorded AIRE transcriptional activation functional score determines the label; the label ranges are low = under 0.6, intermediate = from 0.6 up to 1, high = 1 and over

The following variants have reported results that may help.
I224A    low
C299F    intermediate
G251E    high
P119Y    high
H30G    low
P398Y    high
T480P    high
A450I    high

// next entry
**Q:** Which class holds F82T ?
**A:** low

FYI, the data here is from the supplement of paper PMC12667976.
